Origin of measurements: patent US6468977B1

# experimental-system: Cathepsin B (Homo sapiens, UniProt P07858)
# Construct: purchased Athens Research and Technology, Inc
# assay-method-text: Inhibition of cathepsin B, enzyme inactivation kinetics
# Assay type: biochemical
# measurement-context: 25° C., pH 6.0; read-out: k3/Ki (second order rate of inhibition)
experimental-readout: kinact/KI (M⁻¹ s⁻¹)
Value expressed in M⁻¹ s⁻¹; do not type the unit.

Illustrative cases are given below, each with its answer.
Query string: Lab note: Cathepsin B (Homo sapiens, UniProt P07858) assay, enter kinact/KI for CC(C)CC(Nc1nc(C(=O)O)ns1)C(=O)N1CCCC1C(=O)O (centres unmarked) [apo310] here
Result string: 293

Query string: Lab note: Cathepsin B (Homo sapiens, UniProt P07858) assay, enter kinact/KI for COc1nsc(N[C@@H](CC(C)C)C(=O)N2CCC[C@H]2C(=O)O)n1 [apo501] here
Result string: 5630

Next:
Query string: Lab note: Cathepsin B (Homo sapiens, UniProt P07858) assay, enter kinact/KI for COc1nsc(NC(=O)[C@H](C)NC(=O)[C@H](Cc2ccccc2)NC(=O)OCc2ccccc2)n1 [apo504] here
Result string: 864

Query string: Lab note: Cathepsin B (Homo sapiens, UniProt P07858) assay, enter kinact/KI for CC(C)C[C@H](Nc1nc(-c2ccccc2)ns1)C(=O)N1CCC[C@H]1C(=O)O [apo5O9] here
Result string: 175

Query string: Lab note: Cathepsin B (Homo sapiens, UniProt P07858) assay, enter kinact/KI for Cc1nsc(N[C@@H](CC(C)C)C(=O)N2CCC[C@H]2C(=O)O)n1 [apo510] here
Result string: 55
